Entry source: PubChem BioAssay (NCI)

Tested on: SF-268 CNS
Assay: NCI-60 one-dose screen, 48 h
Conditions: 10 µM unless noted
Compounds without any hit were thinned out: in the full panel of roughly 83,000, 20% have a hit. Calls of active or inactive are those of the source. The calls were made as follows: active = growth percent below 10; inactive = the rest.
Give your call using only these classes: active, inactive

*Q* GET /call?item= CCCCCCCCNC(C)C(O)c1ccc(SC(C)C)cc1 (stereo not given) returns the recorded outcome of this test.
*A* inactive

*Q* GET /call?item= CCN(CC)CCC(CNc1ccnc2cc(Cl)ccc12)c1ccc(O)cc1 (stereo not given) returns the recorded outcome of this test.
*A* inactive

*Q* GET /call?item= `Cc1ccc(N2C3c4ccccc4N(S(=O)(=O)c4ccc(C)cc4)C2c2ccccc2N3S(=O)(=O)c2ccc(C)cc2)cc1` returns the recorded outcome of this test.
*A* inactive

*Q* GET /call?item= `COc1ccc(/C=C/C(=O)c2ccc(NC(=O)CSc3nnc(-c4ccc(OC)cc4)n3-c3ccccc3)cc2)cc1` returns the recorded outcome of this test.
*A* inactive

*Q* GET /call?item= `Nc1nc(N)c2cc(Sc3ccc(Cl)cc3)ccc2n1` returns the recorded outcome of this test.
*A* inactive

*Q* GET /call?item= `C=CCn1c(SCC(=O)Nc2ccc(/C(C)=N\O)cc2)nnc1-c1cc(-c2ccc(Cl)cc2)nc2ccccc12` returns the recorded outcome of this test.
*A* inactive

*Q* GET /call?item= COc1cc(C2C=C(C)N=C3SC=NN32)cc(OC)c1OC (stereo not given) returns the recorded outcome of this test.
*A* inactive

*Q* GET /call?item= `CCc1ccc(Nc2ncnc3c2cnn3-c2cccc(Br)c2)cc1` returns the recorded outcome of this test.
*A* inactive

*Q* GET /call?item= `C/C(=C\C(=N\N=C(N)N)c1ccc(Cl)cc1)c1ccc(Cl)cc1` returns the recorded outcome of this test.
*A* active

*Q* GET /call?item= `CCCCCCCCCCCCCC[N+](C)(C)CCCCCCCCCCCCCC` returns the recorded outcome of this test.
*A* inactive

* * *

System: MDA-MB-231 breast
Assay: NCI-60 one-dose screen, 48 h
Conditions: 10 µM unless noted
About 83,000 compounds went through this panel and 20% of them were active in at least one assay; those are over-represented in the sample as a whole. The source made the active and inactive calls. Rule for the calls: active = growth percent below 10; inactive = the rest.
Give your call using only these classes: active, inactive

*Q* GET /call?item= `CCCCCNCCCCCNc1cc(OC)cc2cccnc12` returns the recorded outcome of this test.
*A* inactive

*Q* GET /call?item= CC(OC(=O)Nc1cccc(Cl)c1)C(=O)O (stereo not drawn) returns the recorded outcome of this test.
*A* inactive

*Q* GET /call?item= C/C=C(\C)C(C(=O)NC1CCCCC1)N(C(=O)C1CCc2cc(F)ccc2O1)c1ccc([N+](=O)[O-])cc1 (stereo not drawn) returns the recorded outcome of this test.
*A* inactive

*Q* GET /call?item= `C#CC[C@@H]1C[C@]2(C)[C@H]3CC=C4[C@H]5[C@@H](C)[C@H](C)CC[C@]5(C(=O)NCCCCN)CC[C@@]4(C)[C@]3(C)CC[C@H]2C(C)(C)[C@H]1OC(C)=O` returns the recorded outcome of this test.
*A* inactive

*Q* GET /call?item= `Nc1cccc(S(=O)(=O)c2cccc(N)c2)c1` returns the recorded outcome of this test.
*A* inactive

*Q* GET /call?item= `COc1ccc([C@@H]2[C@@H](Cl)C(=O)N2c2cc(OC)c(OC)c(OC)c2)cc1C` returns the recorded outcome of this test.
*A* inactive

*Q* GET /call?item= O=C(Oc1c(Cl)c(Cl)c(Cl)c(Cl)c1Cl)C1CCCN1C(=O)OCc1ccccc1 (stereo not drawn) returns the recorded outcome of this test.
*A* inactive

*Q* GET /call?item= CC(CN1CCN(C)CC1)CN1c2ccccc2Sc2ccc(C(F)(F)F)cc21 (stereo not drawn) returns the recorded outcome of this test.
*A* inactive

*Q* GET /call?item= `COc1ccc(C(=O)/C=C/c2cn(-c3ccccc3)nc2-c2cccc(Nc3ccnc4cc(Cl)ccc34)c2)cc1` returns the recorded outcome of this test.
*A* inactive

*Q* GET /call?item= O=C(/C=C/c1ccccc1)C(Br)C(Br)c1ccccc1 (stereo not drawn) returns the recorded outcome of this test.
*A* inactive

*Q* GET /call?item= `O=C(/C=C/c1cc([N+](=O)[O-])ccc1Cl)c1ccccc1` returns the recorded outcome of this test.
*A* inactive

*Q* GET /call?item= `COc1cc2nccc(Oc3ccc(NC(=O)C4(C(=O)Nc5ccc(F)cc5)CC4)cc3)c2cc1O` returns the recorded outcome of this test.
*A* inactive

*Q* GET /call?item= `COc1cccc(/C=N/N=C(N)N)c1` returns the recorded outcome of this test.
*A* inactive

*Q* GET /call?item= `O=C(CI)NCCNc1cccc2c(S(=O)(=O)O)cccc12` returns the recorded outcome of this test.
*A* inactive

*Q* GET /call?item= `Cc1n(Cc2ccc3ccccc3n2)cc[n+]1Cc1ccc2ccccc2c1` returns the recorded outcome of this test.
*A* active

*Q* GET /call?item= `Cc1ccc(NC(=O)c2[nH]c(SCCN(C)C)nc2-c2ccc(F)cc2)cc1C#Cc1cnc2cccnn12` returns the recorded outcome of this test.
*A* active

*Q* GET /call?item= COc1ccc2c(c1)CCCC21C(=O)Nc2c(Cl)cccc21 (stereo not drawn) returns the recorded outcome of this test.
*A* inactive

*Q* GET /call?item= `COc1ccc(/C=C2\N=C(c3cccnc3)N(c3ccccc3)NC2=O)cc1` returns the recorded outcome of this test.
*A* inactive

*Q* GET /call?item= C=C1NC(=O)C(C(C)CC)NC(=O)C2CSCC(NC(=O)CCC(=O)O)C(=O)NC(Cc3ccccc3)C(=O)NC(C)C(=O)NC(CC(C)CC)C(=O)NC(C(=O)NC(Cc3ccccc3)C(=O)N3CCCC3C(=O)N2)C(C)OC(=O)C(CO)NC(=O)C(C(O)COC)N(C)C(=O)C(C(C)C)NC(=O)C(CC(C)CC)NC1=O (stereo not drawn) returns the recorded outcome of this test.
*A* inactive

*Q* GET /call?item= CC(=O)OC1Oc2cc(C)c(C)cc2-c2oc(=O)c(-c3ccc(F)cc3)cc21 (stereo not drawn) returns the recorded outcome of this test.
*A* inactive

*Q* GET /call?item= Nc1nc(N)c2c(n1)NC(c1sc(Cl)nc1Cl)CC(c1ccc3c(c1)OCO3)=N2 (stereo not drawn) returns the recorded outcome of this test.
*A* inactive

*Q* GET /call?item= `COc1cccc2nc(Nc3cccc(NC(=O)c4ccc(N5CCN(C)CC5)c(C(F)(F)F)c4)c3)ccc12` returns the recorded outcome of this test.
*A* inactive

*Q* GET /call?item= CCCCN(CCCC)CCC(O)c1cc2ccc(C(F)(F)F)cc2c2cc(C(F)(F)F)ccc12 (stereo not drawn) returns the recorded outcome of this test.
*A* inactive

*Q* GET /call?item= `Cc1ccc(/C=C/C(=N/N=C(N)N)c2ccccc2)cc1` returns the recorded outcome of this test.
*A* inactive

*Q* GET /call?item= Cc1ccc(NC(=O)c2nc(S(C)=O)oc2-c2ccc(F)cc2)cc1Nc1nccc(-c2cccnc2)n1 (stereo not drawn) returns the recorded outcome of this test.
*A* inactive

*Q* GET /call?item= CCC(C)C1NC(=O)c2nc(oc2-c2ccccc2)-c2csc(n2)-c2csc(n2)-c2nc(oc2C)-c2coc(n2)CNC(=O)C(C(C)CC)NC1=O (stereo not drawn) returns the recorded outcome of this test.
*A* active

*Q* GET /call?item= `O=C1C2=C(C(=O)c3c(O)ccc(O)c31)N(c1ccc(N3CCOCC3)nc1)Cc1ccccc1O2` returns the recorded outcome of this test.
*A* active

*Q* GET /call?item= CC1=C(C(=O)Nc2ccc(F)cc2)C(c2ccc(C)cc2)C2=C(CC(C)(C)CC2=O)N1 (stereo not drawn) returns the recorded outcome of this test.
*A* inactive

*Q* GET /call?item= `COc1ccc(C2=Nn3c(nnc3-c3ccc(Cl)cc3N)SC2)cc1` returns the recorded outcome of this test.
*A* inactive

*Q* GET /call?item= `O=C(Nc1ccc2[nH]c3ccccc3c2c1)c1ccccc1Cl` returns the recorded outcome of this test.
*A* inactive

*Q* GET /call?item= `CCOC(=O)Nc1ccc2nc(-c3cscn3)[nH]c2c1` returns the recorded outcome of this test.
*A* inactive

*Q* GET /call?item= Cc1cc(NC(=O)C2c3ccccc3C(=O)N(CC(C)C)C2c2cccs2)no1 (stereo not drawn) returns the recorded outcome of this test.
*A* active

*Q* GET /call?item= `C/C(=N\NC(=S)Nc1ccccc1)c1ccccn1` returns the recorded outcome of this test.
*A* inactive

*Q* GET /call?item= `O=[N+]([O-])c1cccc([I+]c2ccccc2)c1` returns the recorded outcome of this test.
*A* inactive

*Q* GET /call?item= `COC(=O)/C=C/c1cc(OC(C)=O)c2c(c1)[C@@H](C(=O)OC)[C@H](c1ccc(OC(C)=O)c(OC(C)=O)c1)O2` returns the recorded outcome of this test.
*A* inactive

*Q* GET /call?item= `CCCCCCCCCCCCCCCC1=NCC[N+]1(CCO)CCO` returns the recorded outcome of this test.
*A* inactive

*Q* GET /call?item= COc1ccc(-c2nsc3c2NC(=O)CC3c2ccc3c(c2)OCO3)cc1 (stereo not drawn) returns the recorded outcome of this test.
*A* inactive

*Q* GET /call?item= `Cc1nc2c(-c3cnc(N)nc3)nc(N3CCOCC3)nc2n1C(C)C` returns the recorded outcome of this test.
*A* inactive
